- System: Pseudomonas aeruginosa
- Protocol details: Inhibition of Pseudomonas aeruginosa RocR assessed as residual enzyme activity at 100 uM using 30 uM c-di-GMP substrate
molecules and their reported Activity
Kindly provide the numeric value in % only, without the unit symbol.

Consider the worked cases shown below.
Asked: Return Activity measured with Pseudomonas aeruginosa given this molecule: Nc1nc(Cl)c2ncn(CCCCn3cc(Cn4cnc5c(Cl)nc(N)nc54)nn3)c2n1
Given back: 128

Asked: Please do the same for Nc1nc2c(ncn2[C@@H]2O[C@H](Cn3cc(COC[C@H]4O[C@@H](n5cnc6c(N)ncnc65)[C@H](O)[C@@H]4O)nn3)[C@@H](O)[C@H]2O)c(=O)[nH]1 as well.
Given back: 79

Asked: Please do the same for Nc1nc2c(ncn2Cc2cn(C[C@H]3O[C@@H](n4cnc5c(=O)[nH]c(N)nc54)[C@H](O)[C@@H]3O)nn2)c(=O)[nH]1 as well.
Given back: 77

Asked: Please do the same for Clc1ncnc2c1ncn2CCCn1cc(Cn2cnc3c(Cl)ncnc32)nn1 as well.
Given back: 93

Asked: Please do the same for Nc1nc(Cl)c2ncn(CCn3cc(Cn4cnc5c(Cl)nc(N)nc54)nn3)c2n1 as well.
Given back: 86

***
Asked: Return Activity measured with Pseudomonas aeruginosa given this molecule: Nc1nc2c(ncn2CCCCn2cc(Cn3cnc4c(=O)[nH]c(N)nc43)nn2)c(=O)[nH]1
Given back: 92

Asked: Please do the same for Nc1nc2c(ncn2CCCn2cc(Cn3cnc4c(=O)[nH]c(N)nc43)nn2)c(=O)[nH]1 as well.
Given back: 41

Asked: Please do the same for Nc1nc(NCc2ccccc2)c2ncn(CCCn3cc(Cn4cnc5c(NCc6ccccc6)nc(N)nc54)nn3)c2n1 as well.
Given back: 75

###

- Test system: Caulobacter vibrioides
- Protocol details: Inhibition of Caulobacter crescentus PleD assessed as residual enzyme activity at 100 uM using 100 uM GTP substrate
Value type: Activity (%)
Kindly provide the numeric value in % only, without the unit symbol.

Asked: Suppose we examine the compound Nc1nc2c(ncn2[C@@H]2O[C@H](Cn3cc(COC[C@H]4O[C@@H](n5cnc6c(N)ncnc65)[C@H](O)[C@@H]4O)nn3)[C@@H](O)[C@H]2O)c(=O)[nH]1 ; what Activity value has been reported?
Given back: 97

***
Asked: Suppose we examine the compound Nc1nc2c(ncn2CCCn2cc(COC[C@H]3O[C@@H](n4cnc5c(=O)[nH]c(N)nc54)[C@H](O)[C@@H]3O)nn2)c(=O)[nH]1 ; what Activity value has been reported?
Given back: 82

Asked: Please do the same for Nc1nc(Cl)c2ncn(CCCCn3cc(Cn4cnc5c(Cl)nc(N)nc54)nn3)c2n1 as well.
Given back: 98

Asked: Please do the same for Nc1nc(Cl)c2ncn(CCCn3cc(Cn4cnc5c(Cl)nc(N)nc54)nn3)c2n1 as well.
Given back: 32

Asked: Please do the same for Nc1nc2c(ncn2CCn2cc(Cn3cnc4c(=O)[nH]c(N)nc43)nn2)c(=O)[nH]1 as well.
Given back: 104

###

compounds and their reported Activity
- Test system: Caulobacter vibrioides
- Protocol details: Inhibition of Caulobacter crescentus PleD assessed as residual enzyme activity at 100 uM using 100 uM GTP substrate
Kindly provide the numeric value in % only, without the unit symbol.

Asked: Return Activity measured with Caulobacter vibrioides given this compound: Nc1nc2c(ncn2Cc2cn(C[C@H]3O[C@@H](n4cnc5c(=O)[nH]c(N)nc54)[C@H](O)[C@@H]3O)nn2)c(=O)[nH]1
Given back: 89

***
Asked: Return Activity measured with Caulobacter vibrioides given this compound: Nc1nc2c(ncn2[C@@H]2O[C@H](COCc3cn(C[C@H]4O[C@@H](n5cnc6c(=O)[nH]c(N)nc65)[C@H](O)[C@@H]4O)nn3)[C@@H](O)[C@H]2O)c(=O)[nH]1
Given back: 63

Asked: Please do the same for Nc1nc(NCc2ccccc2)c2ncn(CCCn3cc(Cn4cnc5c(NCc6ccccc6)nc(N)nc54)nn3)c2n1 as well.
Given back: 109
